Biological target: wild-type Epidermal Growth Factor Receptor (EGFR) (Homo sapiens, UniProt P00533)
Construct: a fragment of human EGFR (amino acids R669 to A1210); made in house; host or cells: Sf9 insect cells
Sequence (P00533 669-1210): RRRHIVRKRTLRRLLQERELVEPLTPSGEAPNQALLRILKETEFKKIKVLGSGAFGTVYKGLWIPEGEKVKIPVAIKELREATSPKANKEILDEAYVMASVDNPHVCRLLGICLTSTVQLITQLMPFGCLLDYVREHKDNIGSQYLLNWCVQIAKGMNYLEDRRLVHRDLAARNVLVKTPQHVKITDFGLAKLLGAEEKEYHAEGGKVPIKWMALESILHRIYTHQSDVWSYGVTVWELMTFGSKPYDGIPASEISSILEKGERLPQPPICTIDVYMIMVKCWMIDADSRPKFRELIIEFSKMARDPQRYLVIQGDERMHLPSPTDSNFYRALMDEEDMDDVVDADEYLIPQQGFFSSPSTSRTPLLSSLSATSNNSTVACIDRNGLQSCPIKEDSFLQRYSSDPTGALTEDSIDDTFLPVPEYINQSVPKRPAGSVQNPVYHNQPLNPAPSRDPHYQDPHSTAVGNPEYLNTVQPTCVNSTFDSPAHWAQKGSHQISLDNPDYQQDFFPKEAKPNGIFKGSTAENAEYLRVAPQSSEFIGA
Assay: WT-EGFR Kinase Assay (TR-FRET, 2 mM ATP)
Format: biochemical
Conditions: EGFR Wildtyp 2 mM ATP IC50 [mol/l] (median), Table 4

{"compound": "O=C(Nc1cc(-c2[nH]c3c(C4CCCO4)cc(F)nc3c2-c2ccccn2)ccn1)C(CC(F)F)c1ccc(F)cc1 (single isomer, unassigned) [Example 118]", "IC50": "> 20 µM"}
{"compound": "COc1cnc2c(-c3ccccn3)c(-c3ccnc(NC(=O)C(CC(F)F)c4ccc(F)cc4)c3)[nH]c2c1 (stereo not shown) [Example 81]", "IC50": "> 20 µM"}
{"compound": "O=C(Nc1cc(-c2[nH]c3c(N4CCOCC4)cc(F)nc3c2-c2ccccn2)ccn1)C(CC(F)F)c1ccc(F)cc1 (racemic) [Example 69]", "IC50": "> 20 µM"}
{"compound": "O=C(Nc1cc(-c2[nH]c3cc(F)cnc3c2-c2ccccn2)ccn1)C(CC(F)F)c1ccc(F)cc1 (racemic) [Example 16]", "IC50": "> 20 µM"}
{"compound": "Cc1cc(F)nc2c(-c3ccccn3)c(-c3ccnc(NC(=O)C(CC(F)F)c4ccc(F)cc4)c3)[nH]c12 (single isomer, unassigned; (-)) [Example 38]", "IC50": "> 20 µM"}
{"compound": "O=C(Nc1cc(-c2[nH]c3ncc(F)nc3c2-c2ccccn2)ccn1)C(CC(F)F)c1ccc(F)cc1 (racemic) [Example 62]", "IC50": "> 20 µM"}
{"compound": "O=C(Nc1cc(-c2[nH]c3cccnc3c2-c2cccc(F)n2)ccn1)C(CC(F)F)c1ccc(F)cc1 (racemic) [Example 25]", "IC50": "> 20 µM"}
{"compound": "O=C(Nc1cc(-c2[nH]c3nccnc3c2-c2ccccn2)ccn1)C(CC(F)(F)F)c1ccc(F)cc1 (racemic) [Example 119]", "IC50": "> 20 µM"}
{"compound": "O=C(Nc1cc(-c2[nH]c3c(OCC(F)(F)F)ncnc3c2-c2ccccn2)ccn1)C(CC(F)(F)F)c1ccc(F)cc1 (racemic) [Example 125]", "IC50": "> 20 µM"}
{"compound": "O=C(Nc1cc(-c2[nH]c3cccnc3c2-c2ccccn2)ccn1)C(CCO)c1ccc(F)cc1 (stereo not shown) [Example 104]", "IC50": "> 20 µM"}
{"compound": "Cc1cnc2c(-c3ccccn3)c(-c3ccnc(NC(=O)C(CC(F)F)c4ccc(F)cc4)c3)[nH]c2n1 (single isomer, unassigned; (+)) [Example 86]", "IC50": "> 20 µM"}
{"compound": "O=C(Nc1cc(-c2[nH]c3ccc(Cl)nc3c2-c2ccccn2)ccn1)C(CC(F)F)c1ccc(F)cc1 (racemic) [Example 70]", "IC50": "> 20 µM"}
{"compound": "O=C(Nc1cc(-c2[nH]c3cccnc3c2-c2ccccn2)ccn1)C(CC(F)F)c1ccc(F)cc1 (racemic) [Example 10]", "IC50": "> 20 µM"}

====

Target: full-length human CSNK1A1 (Homo sapiens)
Construct: N-terminal Glutathion-S-Transferase (GST) and full-length human CSNK1A1; purchased Life Technologies PV4174; host or cells: baculovirus infected insect cells
Sequence (P48729 whole entry): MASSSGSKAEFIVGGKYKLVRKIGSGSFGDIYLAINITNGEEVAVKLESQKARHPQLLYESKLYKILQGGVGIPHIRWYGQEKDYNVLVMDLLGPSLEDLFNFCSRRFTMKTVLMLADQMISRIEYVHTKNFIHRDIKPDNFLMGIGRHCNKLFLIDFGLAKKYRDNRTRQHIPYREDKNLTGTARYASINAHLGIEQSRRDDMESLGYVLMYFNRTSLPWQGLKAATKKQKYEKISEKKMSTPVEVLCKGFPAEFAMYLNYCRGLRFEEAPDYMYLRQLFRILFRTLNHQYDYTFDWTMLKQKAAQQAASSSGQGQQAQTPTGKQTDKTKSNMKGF
Test: CSNK1A1 Assay 2 (ADP-Glo, 1 μM ATP, substrate biotin-Ahx-KRRRAL-pS-VASLPGL)
Type: biochemical
Conditions: Table 3, read-out: CSNK1A1 Assay 2 IC50 [mol/l] (median)
Cut-off 4 nM on IC50: below means YES, at or above means NO.

{"molecule": "O=C(Nc1cc(-c2[nH]c3nc(OC(F)F)cnc3c2-c2ccccn2)ccn1)C(CC(F)F)c1ccc(F)cc1 (stereo not drawn) [Example 105]", "group": "NO"}
{"molecule": "Cc1cnc2c(-c3ccccn3)c(-c3ccnc(NC(=O)C(CC(F)F)c4ccc(F)cc4)c3)[nH]c2n1 (stereo not drawn) [Example 85]", "group": "NO"}
{"molecule": "COc1cnc2c(-c3ccccn3)c(-c3ccnc(NC(=O)C(CC(F)F)c4ccc(F)cc4)c3)[nH]c2n1 (single isomer, unassigned) [Example 102]", "group": "NO"}
{"molecule": "O=C(Nc1cc(-c2[nH]c3c(OC[C@@H]4COCCO4)cc(F)nc3c2-c2ccccn2)ccn1)C(CC(F)F)c1ccc(F)cc1 (single isomer, unassigned) [Example 58]", "group": "YES"}
{"molecule": "O=C(Nc1cc(-c2[nH]c3c(N4CCOCC4)cc(F)nc3c2-c2ccccn2)ccn1)C(CC(F)F)c1ccc(F)cc1 (racemic)", "group": "NO"}
{"molecule": "O=C(Nc1cc(-c2[nH]c3cc(F)cnc3c2-c2ccccc2)ccn1)C(CC(F)F)c1ccc(F)cc1 (single isomer, unassigned; (+)) [Example 21]", "group": "NO"}

====

Quick record of IC50 values for full-length human CSNK1D (Homo sapiens).

{"molecule": "O=C(Nc1cc(-c2[nH]c3ccc(F)nc3c2-c2cc(F)ccn2)ccn1)C(CC(F)F)c1ccc(F)cc1 (single isomer, unassigned) [Example 97]", "target_or_system": "full-length human CSNK1D (Homo sapiens)", "IC50 [nM]": 67}
{"molecule": "CC(C)(O)c1cc(F)nc2c(-c3ccccn3)c(-c3ccnc(NC(=O)C(CC(F)F)c4ccc(F)cc4)c3)[nH]c12 (single isomer, unassigned) [Example 99]", "target_or_system": "full-length human CSNK1D (Homo sapiens)", "IC50 [nM]": 3.36}
{"molecule": "O=C(Nc1cc(-c2[nH]c3cccnc3c2-c2ccccc2)ccn1)C(CC(F)F)c1ccc(F)cc1 (racemic) [Example 22]", "target_or_system": "full-length human CSNK1D (Homo sapiens)", "IC50 [nM]": 3.18}
{"molecule": "O=C(Nc1cc(-c2[nH]c3ccnnc3c2-c2ccccn2)ccn1)C(CC(F)F)c1ccc(F)cc1 (racemic) [Example 65]", "target_or_system": "full-length human CSNK1D (Homo sapiens)", "IC50 [nM]": 5.62}
{"molecule": "O=C(Nc1cc(-c2[nH]c3c(OCC4CC4)ncnc3c2-c2ccccn2)ccn1)C(CC(F)F)c1ccc(F)cc1 (racemic) [Example 128]", "target_or_system": "full-length human CSNK1D (Homo sapiens)", "IC50 [nM]": 8.51}
{"molecule": "O=C(Nc1cc(-c2[nH]c3c(OCC(F)(F)F)ncnc3c2-c2ccccn2)ccn1)C(CC(F)(F)F)c1ccc(F)cc1 (single isomer, unassigned) [Example 127]", "target_or_system": "full-length human CSNK1D (Homo sapiens)", "IC50 [nM]": 88.1}
{"molecule": "O=C(Nc1cc(-c2[nH]c3cc(Cl)cnc3c2-c2ccccn2)ccn1)C(CC(F)F)c1ccc(F)cc1 (stereo not drawn) [Example 87]", "target_or_system": "full-length human CSNK1D (Homo sapiens)", "IC50 [nM]": 10.8}
{"molecule": "O=C(Nc1cc(-c2[nH]c3cccnc3c2-c2ccccc2)ccn1)C(CC(F)F)c1ccc(F)cc1 (single isomer, unassigned; (-)) [Example 23]", "target_or_system": "full-length human CSNK1D (Homo sapiens)", "IC50 [nM]": 12.5}
{"molecule": "O=C(Nc1cc(-c2[nH]c3c(C4CCCO4)cc(F)nc3c2-c2ccccn2)ccn1)C(CC(F)F)c1ccc(F)cc1 (single isomer, unassigned) [Example 116]", "target_or_system": "full-length human CSNK1D (Homo sapiens)", "IC50 [nM]": 4.25}
{"molecule": "O=C(Nc1cc(-c2[nH]c3c(OC[C@H]4COCCO4)cc(F)nc3c2-c2ccccn2)ccn1)C(CC(F)F)c1ccc(F)cc1 (single isomer, unassigned) [Example 52]", "target_or_system": "full-length human CSNK1D (Homo sapiens)", "IC50 [nM]": 23.4}
{"molecule": "O=C(Nc1cc(-c2[nH]c3c(OCC(F)(F)F)ncnc3c2-c2ccccn2)ccn1)C(CC(F)(F)F)c1ccc(F)cc1 (racemic) [Example 125]", "target_or_system": "full-length human CSNK1D (Homo sapiens)", "IC50 [nM]": 14.2}
{"molecule": "O=C(Nc1cc(-c2[nH]c3c(C4CCCO4)cc(F)nc3c2-c2ccccn2)ccn1)C(CC(F)F)c1ccc(F)cc1 (single isomer, unassigned) [Example 117]", "target_or_system": "full-length human CSNK1D (Homo sapiens)", "IC50 [nM]": 28}
{"molecule": "Cc1cnc2c(-c3ccccn3)c(-c3ccnc(NC(=O)C(CC(F)F)c4ccc(F)cc4)c3)[nH]c2n1 (single isomer, unassigned; (+)) [Example 86]", "target_or_system": "full-length human CSNK1D (Homo sapiens)", "IC50 [nM]": 6.16}
{"molecule": "O=C(Nc1cc(-c2[nH]c3cccnc3c2-c2ccccn2)ccn1)C(CC(F)F)c1ccc(F)cc1 (racemic) [Example 10]", "target_or_system": "full-length human CSNK1D (Homo sapiens)", "IC50 [nM]": 4.99}
{"molecule": "COc1ncnc2c(-c3ccccn3)c(-c3ccnc(NC(=O)C(CC(F)F)c4ccc(F)cc4)c3)[nH]c12 (stereo not drawn) [Example 113]", "target_or_system": "full-length human CSNK1D (Homo sapiens)", "IC50 [nM]": 9.2}
{"molecule": "O=C(Nc1cc(-c2[nH]c3ccc(Cl)nc3c2-c2ccccn2)ccn1)C(CC(F)F)c1ccc(F)cc1 (racemic) [Example 70]", "target_or_system": "full-length human CSNK1D (Homo sapiens)", "IC50 [nM]": 9.21}
{"molecule": "Cc1cnc2c(-c3ccccn3)c(-c3ccnc(NC(=O)C(CC(F)F)c4ccc(F)cc4)c3)[nH]c2n1 (stereo not drawn) [Example 85]", "target_or_system": "full-length human CSNK1D (Homo sapiens)", "IC50 [nM]": 7.11}
{"molecule": "O=C(Nc1cc(-c2[nH]c3c(OCC(F)F)cc(F)nc3c2-c2ccccn2)ccn1)C(CC(F)F)c1ccc(F)cc1 (single isomer, unassigned) [Example 30]", "target_or_system": "full-length human CSNK1D (Homo sapiens)", "IC50 [nM]": 14.7}
{"molecule": "O=C(Nc1cc(-c2[nH]c3c(CC4CC4)cc(F)nc3c2-c2ccccn2)ccn1)C(CC(F)F)c1ccc(F)cc1 (racemic) [Example 46]", "target_or_system": "full-length human CSNK1D (Homo sapiens)", "IC50 [nM]": 19.2}
{"molecule": "O=C(Nc1cc(-c2[nH]c3c(OC4CC4)cc(F)nc3c2-c2ccccn2)ccn1)C(CC(F)F)c1ccc(F)cc1 (stereo not drawn) [Example 45]", "target_or_system": "full-length human CSNK1D (Homo sapiens)", "IC50 [nM]": 40.4}
{"molecule": "O=C(Nc1cc(-c2[nH]c3cccnc3c2-c2cccc(F)n2)ccn1)C(CC(F)F)c1ccc(F)cc1 (single isomer, unassigned; (-)) [Example 26]", "target_or_system": "full-length human CSNK1D (Homo sapiens)", "IC50 [nM]": 50.7}
{"molecule": "O=C(Nc1cc(-c2[nH]c3c(N4CCNCC4)ccnc3c2-c2ccccn2)ccn1)C(CC(F)F)c1ccc(F)cc1 (single isomer, unassigned) [Example 93]", "target_or_system": "full-length human CSNK1D (Homo sapiens)", "IC50 [nM]": 17.3}
{"molecule": "O=C(Nc1cc(-c2[nH]c3nccnc3c2-c2ccccn2)ccn1)C(CC(F)F)c1ccc(F)cc1 (racemic) [Example 31]", "target_or_system": "full-length human CSNK1D (Homo sapiens)", "IC50 [nM]": 7.81}
{"molecule": "O=C(Nc1cc(-c2[nH]c3ncc(F)nc3c2-c2ccccn2)ccn1)C(CC(F)F)c1ccc(F)cc1 (single isomer, unassigned) [Example 63]", "target_or_system": "full-length human CSNK1D (Homo sapiens)", "IC50 [nM]": 3.77}
